The origin of these recorded values is PubChem BioAssay (Tox21).

assay_name: qHTS assay for small molecule disruptors of the mitochondrial membrane potential - cell viability (AID 720634); note: nearly all actives have a fitted effect of over 20% in size
condition_summary: HepG2 viability, ATP luminescence (CellTiter-Glo), 1 h; series mostly up to 83.2 µM
Records with an inconclusive call do not appear. The source made the active and inactive calls. Calls come from the whole dose curve.
Answer with one of the outcomes t = active, f = inactive

Lab log entry: Cc1nnc2n1-c1ccc(Cl)cc1C(c1ccccc1)=NC2 — outcome as called in the assay? f

Lab log entry: Oc1cccc[c]1[Hg][Cl] — outcome as called in the assay? t

Lab log entry: c1ccc(C2(N3CCCC3)CCCCC2)cc1 — outcome as called in the assay? f

Lab log entry: CNc1ccc(C(=O)CC(O)CCC(C)C2OC(=O)CC(O)CC(=O)CC(O)CC(O)CC(O)CC(O)CC3(O)CC(O)C(C(=O)OC)C(CC(O[C@@H]4O[C@H](C)[C@@H](O)[C@H](N)[C@@H]4O)/C=C/C=C/C=C/C=C/C=C/C=C/C=C/C2C)O3)cc1 (some centres not stated) — outcome as called in the assay? f

Lab log entry: NC1=NC(=O)N2CC12 (configuration not stated) — outcome as called in the assay? f

Lab log entry: CC(C)CCC(=O)O[C@H]1CC[C@H]2[C@@H]3CCC4=CC(=O)CC[C@]4(C)[C@H]3CC[C@]12C — outcome as called in the assay? f

Lab log entry: C[C@]12CC[C@H]3[C@@H](CCC4=C(Cl)C(=O)CC[C@@]43C)[C@@H]1CC[C@@H]2O — outcome as called in the assay? f

Lab log entry: CC1(C)[C@H](C=C(Cl)Cl)[C@H]1C(=O)OCc1c(F)c(F)cc(F)c1F — outcome as called in the assay? f

Lab log entry: CC1COC(Cn2cncn2)(c2ccc(Oc3ccc(Cl)cc3)cc2Cl)O1 (configuration not stated) — outcome as called in the assay? t

Lab log entry: CC(N)Cc1ccc2c(c1)OCO2 (configuration not stated) — outcome as called in the assay? f

Lab log entry: O=C1Nc2ccc(Cl)cc2C(c2ccccc2Cl)=NC1O (configuration not stated) — outcome as called in the assay? f

Lab log entry: COC(=O)[C@]12CCC(C)(C)C[C@H]1[C@H]1C(=O)C=C3[C@@]4(C)C=C(C#N)C(=O)C(C)(C)[C@@H]4CC[C@@]3(C)[C@]1(C)CC2 — outcome as called in the assay? f

Lab log entry: CN[C@@H]1C[C@@H](c2ccc(Cl)c(Cl)c2)c2ccccc21 — outcome as called in the assay? f

Lab log entry: C[N+]1(C)CCCCC1COC(=O)C(O)(c1ccccc1)c1ccccc1 (configuration not stated) — outcome as called in the assay? f

Lab log entry: c1cc2c(c(NC3=NCCN3)c1)CCCC2 — outcome as called in the assay? f

Lab log entry: CCC(=O)O[C@]1(c2ccccc2)CCN(C)C[C@H]1C — outcome as called in the assay? f

Lab log entry: CCCCCCC(=O)O[C@H]1CC[C@H]2[C@@H]3CC[C@H]4CC(=O)C=C(C)[C@]4(C)[C@H]3CC[C@]12C — outcome as called in the assay? f

Lab log entry: COc1cc([C@@H]2c3cc4c(cc3[C@@H](O)[C@H]3COC(=O)[C@H]23)OCO4)cc(OC)c1O — outcome as called in the assay? f

Lab log entry: COc1ccc(OC)c(C[C@H](C)N)c1 — outcome as called in the assay? f

Lab log entry: COC([CH2][Hg])CNC(=O)c1ccccc1OCC(=O)O (configuration not stated) — outcome as called in the assay? f

Lab log entry: CCC1(c2cnc[nH]2)Cc2ccccc2C1 — outcome as called in the assay? f

Lab log entry: NCC[C@H](O)C(=O)N[C@@H]1C[C@H](N)[C@@H](O[C@H]2O[C@H](CN)[C@@H](O)[C@H](O)[C@H]2N)[C@H](O[C@@H]2O[C@H](CO)[C@@H](O)[C@H]2O)[C@H]1O — outcome as called in the assay? f

Lab log entry: CN(C)CCCCCCN(C)C (tested in a mixture with another compound) — outcome as called in the assay? f

Lab log entry: CCCC(C)C1(CC)C(=O)NC(=O)NC1=O (configuration not stated) — outcome as called in the assay? f

Lab log entry: CCCC(C)(COC(N)=O)COC(=O)NC1CC1 (configuration not stated) — outcome as called in the assay? f

Lab log entry: C=C[C@H]1CN2CC[C@H]1C[C@H]2[C@H](OC(=O)OCC)c1ccnc2ccc(OC)cc12 — outcome as called in the assay? f

Lab log entry: CCC(=O)O[C@@](Cc1ccccc1)(c1ccccc1)[C@@H](C)CN(C)C — outcome as called in the assay? f

Lab log entry: C[C@H]1[C@H]2Cc3ccc(O)cc3[C@]1(C)CCN2CCc1ccccc1 — outcome as called in the assay? f

Lab log entry: COc1ccc(OC)c([C@@H](O)[C@H](C)N)c1 — outcome as called in the assay? f

Lab log entry: CNC1(c2ccccc2Cl)CCCCC1=O (configuration not stated) — outcome as called in the assay? f

Lab log entry: O=C(O)CCCO — outcome as called in the assay? f

Lab log entry: C[C@]12C[C@H]3S[C@H]3C[C@@H]1CC[C@@H]1[C@@H]2CC[C@]2(C)[C@@H](O)CC[C@@H]12 — outcome as called in the assay? f

Lab log entry: C[C@@H]([C@H](O)c1ccccc1)N(C)C — outcome as called in the assay? f

Lab log entry: CN[C@H]1C[C@@H](N)[C@H](O)[C@@H](O[C@@H]2O[C@H](CO)[C@H](O)[C@@H]3OC4(O[C@H]23)O[C@H](C(N)CO)[C@H](O)[C@H](O)[C@H]4O)[C@@H]1O (some centres not stated) — outcome as called in the assay? f

Lab log entry: CC(C)NC(C)Cc1ccc(I)cc1 (configuration not stated) — outcome as called in the assay? f

Lab log entry: C[N+]1([O-])[C@@H]2CC[C@H]1CC(OC(=O)C(CO)c1ccccc1)C2 (some centres not stated) — outcome as called in the assay? f

Lab log entry: CN(C)[C@H](Cc1ccccc1)c1ccccc1 — outcome as called in the assay? f

Lab log entry: CCC(N)Cc1c[nH]c2ccccc12 (configuration not stated) — outcome as called in the assay? f

Lab log entry: CCCCc1ccc(C(=O)O)nc1 — outcome as called in the assay? f

Lab log entry: O=C(O)/C=C/C(=O)O — outcome as called in the assay? f

Lab log entry: CCCCNCC(O)c1ccc(O)cc1 (configuration not stated) — outcome as called in the assay? f

Lab log entry: O=C(C[C@@H]1NCCC[C@H]1O)Cn1cnc2cc(Br)c(Cl)cc2c1=O — outcome as called in the assay? f

----------
system_under_test: Estrogen receptor (Homo sapiens) (UniProt P03372)
Sequence (P03372 whole entry, looked up): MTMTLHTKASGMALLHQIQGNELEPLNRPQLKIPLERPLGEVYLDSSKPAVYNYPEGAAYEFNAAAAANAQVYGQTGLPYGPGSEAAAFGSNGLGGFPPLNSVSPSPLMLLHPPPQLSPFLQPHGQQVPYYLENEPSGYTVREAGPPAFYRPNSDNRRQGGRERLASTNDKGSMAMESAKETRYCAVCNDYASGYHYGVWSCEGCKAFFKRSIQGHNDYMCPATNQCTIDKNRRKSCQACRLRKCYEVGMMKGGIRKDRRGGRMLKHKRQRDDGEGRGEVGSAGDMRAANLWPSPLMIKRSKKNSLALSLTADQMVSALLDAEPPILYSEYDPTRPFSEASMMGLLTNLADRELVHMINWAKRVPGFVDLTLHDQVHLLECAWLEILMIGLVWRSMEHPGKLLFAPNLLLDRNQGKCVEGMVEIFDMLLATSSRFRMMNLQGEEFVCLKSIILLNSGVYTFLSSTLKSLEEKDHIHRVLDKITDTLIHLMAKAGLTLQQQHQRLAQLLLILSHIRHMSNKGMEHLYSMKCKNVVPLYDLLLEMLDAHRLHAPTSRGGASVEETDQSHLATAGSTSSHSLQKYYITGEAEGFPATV
assay_name: qHTS assay to identify small molecule agonists of the estrogen receptor alpha (ER-alpha) signaling pathway (AID 743075);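 note: HEK293 GripTite cells with ER-alpha and UAS-driven beta-lactamase reporter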
condition_summary: HEK293 ER-alpha-UAS-bla, beta-lactamase FRET ratio, 18 h; series mostly up to 70.1 µM
Results filed as inconclusive are left out. The source made the active and inactive calls. Calls come from the whole dose curve.
value_kind: outcome

CN1CC[C@@]23CCCC[C@@H]2[C@@H]1Cc1ccc(O)cc13	inactive
Cc1nnc2n1-c1sc(Br)cc1C(c1ccccc1Cl)=NC2	inactive
CC(C)NC(C)Cc1ccc(I)cc1 (centres undefined)	inactive
CCC1(c2cnc[nH]2)Cc2ccccc2C1	inactive
O=P(O)(O)C(Cl)(Cl)P(=O)(O)O	inactive
NCC[C@H](O)C(=O)N[C@@H]1C[C@H](N)[C@@H](O[C@H]2O[C@H](CN)[C@@H](O)[C@H](O)[C@H]2N)[C@H](O[C@@H]2O[C@H](CO)[C@@H](O)[C@H]2O)[C@H]1O	inactive
C[C@@H](N)C(=O)c1ccccc1	inactive
O=C(C[C@@H]1NCCC[C@H]1O)Cn1cnc2cc(Br)c(Cl)cc2c1=O	inactive

Return reported outcome. Input compound: O=C1Nc2ccc(Cl)cc2C(c2ccccc2Cl)=NC1O (centres undefined) inactive

Return reported outcome. Input compound: CCCCC[C@@H](O)C1C(=O)OC(C)[C@H](O)/C=C/C=C/C=C/C=C/C=C(\C)C(O)C(O)C(O)C[C@H](O)C[C@H](O)C[C@H](O)C[C@H](O)C[C@@H]1O (some centres undefined) inactive

Return reported outcome. Input compound: O=C(OCCN1CCCCC1)C(O)(c1ccccc1)c1ccccc1 inactive

Return reported outcome. Input compound: CC(=O)O[C@H]1C[C@H](O[C@H]2[C@@H](O)C[C@H](O[C@H]3[C@@H](O)C[C@H](OC4CC[C@@]5(C)[C@H](CC[C@@H]6[C@@H]5CC[C@]5(C)[C@@H](C7=CC(=O)OC7)CC[C@]65O)C4)O[C@@H]3C)O[C@@H]2C)O[C@H](C)[C@H]1O[C@@H]1O[C@H](CO)[C@@H](O)[C@H](O)[C@H]1O (some centres undefined) inactive

Return reported outcome. Input compound: CC(=O)OCC(=O)[C@H]1CC[C@H]2[C@@H]3CC[C@H]4C[C@H](O)CC[C@]4(C)[C@H]3C(=O)C[C@]12C inactive
